# condition_info: in THF, 288.15 K
metric: solubility (mole fraction)

{"chemical_structure": "CC1(C)S[C@@H]2[C@H](NC(=O)[C@H](NC(=O)N3CCNC3=O)c3ccccc3)C(=O)N2[C@H]1C(=O)O", "readout_value": 0.00131}

---

# condition_info: in isopropanol, 283.15 K
metric: solubility (mole fraction)

{"chemical_structure": "CC1(C)S[C@@H]2[C@H](NC(=O)[C@H](NC(=O)N3CCNC3=O)c3ccccc3)C(=O)N2[C@H]1C(=O)O", "readout_value": 0.000111}

---

# condition_info: in methanol, 323.15 K

{"chemical_structure": "CC1(C)S[C@@H]2[C@H](NC(=O)[C@H](NC(=O)N3CCNC3=O)c3ccccc3)C(=O)N2[C@H]1C(=O)O", "solubility (mole fraction)": 0.00178}
